System: P450 3A4 (Homo sapiens)
Sequence (P08684 2-503): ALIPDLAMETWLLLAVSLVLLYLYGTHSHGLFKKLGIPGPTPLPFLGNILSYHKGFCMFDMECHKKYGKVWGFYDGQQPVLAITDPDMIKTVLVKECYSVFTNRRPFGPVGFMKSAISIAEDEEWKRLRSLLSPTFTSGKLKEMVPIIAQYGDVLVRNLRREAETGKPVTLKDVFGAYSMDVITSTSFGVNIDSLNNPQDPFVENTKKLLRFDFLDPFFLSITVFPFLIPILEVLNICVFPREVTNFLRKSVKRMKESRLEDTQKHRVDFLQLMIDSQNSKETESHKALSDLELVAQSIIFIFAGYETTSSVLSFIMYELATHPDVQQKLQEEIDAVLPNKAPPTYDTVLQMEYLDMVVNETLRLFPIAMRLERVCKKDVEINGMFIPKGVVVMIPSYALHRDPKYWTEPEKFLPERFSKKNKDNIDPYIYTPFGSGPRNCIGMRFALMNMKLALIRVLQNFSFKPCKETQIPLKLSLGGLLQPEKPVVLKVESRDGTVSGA
Sequence (P16435 2-677 partner): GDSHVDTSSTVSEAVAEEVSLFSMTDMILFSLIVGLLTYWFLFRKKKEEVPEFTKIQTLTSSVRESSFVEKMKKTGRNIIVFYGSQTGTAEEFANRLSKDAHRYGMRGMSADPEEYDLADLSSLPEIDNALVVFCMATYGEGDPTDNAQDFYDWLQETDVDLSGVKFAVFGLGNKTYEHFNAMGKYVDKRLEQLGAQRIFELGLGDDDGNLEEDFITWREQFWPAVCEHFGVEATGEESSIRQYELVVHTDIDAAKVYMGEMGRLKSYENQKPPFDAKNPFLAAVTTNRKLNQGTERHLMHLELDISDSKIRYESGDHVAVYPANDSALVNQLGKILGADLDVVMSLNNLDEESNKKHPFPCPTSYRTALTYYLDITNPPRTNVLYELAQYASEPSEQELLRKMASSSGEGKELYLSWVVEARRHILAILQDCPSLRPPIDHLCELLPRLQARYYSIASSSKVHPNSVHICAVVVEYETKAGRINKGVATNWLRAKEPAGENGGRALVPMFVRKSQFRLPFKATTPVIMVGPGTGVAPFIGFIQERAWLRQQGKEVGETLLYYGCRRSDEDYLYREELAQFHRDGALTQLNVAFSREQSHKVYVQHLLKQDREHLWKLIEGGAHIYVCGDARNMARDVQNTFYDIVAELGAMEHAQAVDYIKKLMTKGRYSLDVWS
Sequence (P00167 2-134 partner): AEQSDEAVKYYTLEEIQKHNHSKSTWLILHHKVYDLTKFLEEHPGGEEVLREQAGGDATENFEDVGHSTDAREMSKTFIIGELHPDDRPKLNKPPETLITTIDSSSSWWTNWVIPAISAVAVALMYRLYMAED
Experiment summary: in vitro
Experimental endpoint: KI (inactivation)
In your response, put the unit directly after the numeric value.

Given the molecule CCC(=O)O[C@]1(C(=O)SCF)[C@H](C)C[C@H]2[C@@H]3C[C@H](F)C4=CC(=O)C=C[C@]4(C)[C@@]3(F)[C@@H](O)C[C@@]21C [FLT, fluticasone propionate] and test system P450 3A4 (Homo sapiens), the measured KI (inactivation) is 3.5 µM
